Assay: Kinetic solubility
Assay type: physicochemical
Settings: phosphate-buffered saline, 25 °C, pH 7.4, aqueous buffer, kinetic from dmso stock; CSV column, unit inferred
observationType: solubility kinetic at 2 h (µM)
Respond numerically; units are µM and should not be typed.

-- ask For CC(C)C[C@H](NC(=O)[C@H](Cc1ccccc1)NC(=O)c1cnccn1)B(O)O [bortezomib, reference compound] , what is its reported solubility kinetic at 2 h?
-- reply 399

====

Target: β5c subunit of human cCP (Homo sapiens, UniProt P20618+P28074)
Construct: purchased Boston Biochem, Inc
Test: IC50 determination with fluorogenic substrate Ac-WLA-AMC
Assay type: biochemical
Details: own assay
observationType: IC50 (nM)

A: O=C(N[C@@H](Cc1coc2ccccc12)B(O)O)[C@@H]1C[C@H]2CC[C@@H]1O2 [M3258]
B: COc1ccc([C@@H](O)[C@H](NC(=O)[C@H](C)NC(=O)CN2CCOCC2)C(=O)N[C@@H](CC2=CCCC2)C(=O)[C@@]2(C)CO2)cc1 [KZR-616, reference compound]
-- ask I'd appreciate it if you could identify which of A and B has the greater IC50. Pick one; state its label.
-- reply A
(A: 1230 nM, B: 426 nM)
